Source: patent US20070048215A1

Target: membranes from hERG-transfected HEK cells (hERG channel) (Homo sapiens, UniProt Q12809)
Construct: expressed in transfected cells; host or cells: HEK (human embryonic kidney) cells, membrane preparation
Experiment: Binding of the radioligand to membranes from hERG-transfected HEK cells (Kd, Bmax)
Conditions: mean±SEM, n=3
Description: The batch of radiolabel used in these studies has a specific activity of 2941.5 GBq/mmol (79.5 Ci/mmol) and a concentration of 20 μM. The stock radiolabel is diluted 2000-fold to 10 nM and 20 μL added per well to a final assay volume of 200 μL to give a final radioligand concentration of 1 nM.
Measurement type: Kd (nM)
Write down the numeric answer in nM and omit the unit.

## Task Given the entry O=[N+]([O-])c1ccc(CCN2CC3CC(C2)CN(CCc2ccc([N+](=O)[O-])cc2)C3)cc1 , report its measured Kd.
## Result 0.91

* * *

target: hERG-transfected HEK membranes (hERG channel) (Homo sapiens, UniProt Q12809)
Sequence (Q12809 whole entry): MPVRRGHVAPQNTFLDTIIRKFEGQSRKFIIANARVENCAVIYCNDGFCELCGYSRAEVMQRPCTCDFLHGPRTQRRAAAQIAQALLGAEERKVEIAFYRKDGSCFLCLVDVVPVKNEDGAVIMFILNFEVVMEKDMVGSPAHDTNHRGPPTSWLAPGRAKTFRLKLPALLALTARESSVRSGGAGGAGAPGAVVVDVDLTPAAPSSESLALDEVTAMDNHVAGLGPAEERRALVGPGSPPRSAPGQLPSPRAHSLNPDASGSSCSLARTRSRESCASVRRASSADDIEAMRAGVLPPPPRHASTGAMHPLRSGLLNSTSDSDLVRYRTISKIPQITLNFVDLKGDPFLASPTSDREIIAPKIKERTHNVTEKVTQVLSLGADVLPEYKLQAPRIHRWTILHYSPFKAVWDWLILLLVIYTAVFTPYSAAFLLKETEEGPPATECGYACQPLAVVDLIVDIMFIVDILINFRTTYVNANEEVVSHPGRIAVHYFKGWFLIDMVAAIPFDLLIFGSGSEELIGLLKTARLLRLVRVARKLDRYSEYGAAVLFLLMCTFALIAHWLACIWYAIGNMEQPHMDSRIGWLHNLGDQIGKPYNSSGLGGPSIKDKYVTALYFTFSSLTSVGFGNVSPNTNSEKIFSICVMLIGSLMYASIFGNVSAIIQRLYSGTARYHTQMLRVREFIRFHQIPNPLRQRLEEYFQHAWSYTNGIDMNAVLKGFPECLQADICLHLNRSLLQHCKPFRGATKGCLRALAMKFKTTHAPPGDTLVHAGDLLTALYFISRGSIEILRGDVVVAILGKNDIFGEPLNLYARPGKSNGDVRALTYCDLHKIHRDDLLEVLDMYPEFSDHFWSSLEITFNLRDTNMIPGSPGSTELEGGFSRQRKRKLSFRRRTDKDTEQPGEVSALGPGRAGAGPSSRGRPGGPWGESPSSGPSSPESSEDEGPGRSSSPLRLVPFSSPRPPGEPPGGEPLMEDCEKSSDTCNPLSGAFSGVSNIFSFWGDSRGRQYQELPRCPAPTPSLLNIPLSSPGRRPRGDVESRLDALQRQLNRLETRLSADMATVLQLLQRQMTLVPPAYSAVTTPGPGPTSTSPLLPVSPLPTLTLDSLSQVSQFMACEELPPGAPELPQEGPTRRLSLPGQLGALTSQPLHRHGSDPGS
Measurement type: IC50 (nM)
Write down the numeric answer in nM and omit the unit.

## Task Given the entry O=[N+]([O-])c1ccc(CCN2CC3CC(C2)CN(CCc2ccc([N+](=O)[O-])cc2)C3)cc1 , report its measured IC50.
## Result 3.16
